Reported IC50 values for a set of compounds
# TESTED TARGET: L858R/T790M EGFR (Homo sapiens, UniProt P00533, L858R/T790M)
# Construct: Assays to measure cellular phosphorylation of endogenous p-EGFR in cell lysates; endogenous in cells
# Sequence (P00533 25-1210 T790M/L858R): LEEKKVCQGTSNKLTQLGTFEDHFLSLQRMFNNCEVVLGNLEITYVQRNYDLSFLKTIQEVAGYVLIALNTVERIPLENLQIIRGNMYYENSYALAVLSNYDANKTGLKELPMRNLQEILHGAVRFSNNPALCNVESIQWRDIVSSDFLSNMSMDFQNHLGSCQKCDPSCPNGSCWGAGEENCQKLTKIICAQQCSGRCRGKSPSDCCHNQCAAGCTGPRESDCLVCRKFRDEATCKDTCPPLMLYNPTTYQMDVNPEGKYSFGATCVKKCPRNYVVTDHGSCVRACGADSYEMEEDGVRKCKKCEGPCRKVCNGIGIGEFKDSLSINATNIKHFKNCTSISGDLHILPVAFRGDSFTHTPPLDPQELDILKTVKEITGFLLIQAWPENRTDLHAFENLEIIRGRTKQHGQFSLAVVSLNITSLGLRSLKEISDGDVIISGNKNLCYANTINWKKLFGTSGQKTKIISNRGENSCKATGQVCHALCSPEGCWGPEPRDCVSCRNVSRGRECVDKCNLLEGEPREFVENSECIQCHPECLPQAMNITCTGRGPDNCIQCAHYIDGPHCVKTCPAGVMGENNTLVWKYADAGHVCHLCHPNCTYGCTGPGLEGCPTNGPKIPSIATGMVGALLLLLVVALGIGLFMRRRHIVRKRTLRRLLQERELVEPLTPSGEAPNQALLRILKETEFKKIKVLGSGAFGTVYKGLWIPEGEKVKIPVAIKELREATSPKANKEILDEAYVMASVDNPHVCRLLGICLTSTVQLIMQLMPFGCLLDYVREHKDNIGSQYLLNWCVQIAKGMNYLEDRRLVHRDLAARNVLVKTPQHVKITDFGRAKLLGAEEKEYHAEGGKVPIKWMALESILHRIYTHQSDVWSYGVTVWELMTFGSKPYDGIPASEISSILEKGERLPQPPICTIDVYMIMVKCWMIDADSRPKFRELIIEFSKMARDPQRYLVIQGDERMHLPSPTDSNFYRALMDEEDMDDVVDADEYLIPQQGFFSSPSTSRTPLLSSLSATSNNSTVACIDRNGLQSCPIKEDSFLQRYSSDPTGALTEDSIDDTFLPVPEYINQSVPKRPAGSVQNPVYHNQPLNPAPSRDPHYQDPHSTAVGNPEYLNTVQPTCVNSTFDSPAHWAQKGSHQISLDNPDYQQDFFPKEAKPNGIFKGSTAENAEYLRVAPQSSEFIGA
# MEASUREMENT PROTOCOL: L858R/T790M EGFR (double mutant) cellular phosphorylation assay
# CONDITION: NCI-H1975 human lung cells; endogenous p-EGFR in cell lysates by ELISA; 2 h with compound
# Protocol: Assay 2: L858R/T790M EGFR (Double Mutant) Cellular Phosphorylation Assay The human lung cell lines NCI-H1975 were obtained from the American type Culture Collection. […] Cells were grown in a humidified incubator at 37° C. with 5% CO2. […] 40 μL of cells were seeded (10000 cells/well) in growth medium in Corning black, clear-bottomed 384-well plates and incubated at 37° C. with 5% CO2 overnight. […] 20 μL QuantaBlu stop solution were added to plates and fluorescence read on an Envision plate reader using […]
Express the result in nM but write the number alone.

Worked examples follow.
- COMPOUND: "C=CC(=O)Nc1cc(Nc2nccc(-c3cnn4ccccc34)n2)c(OC)cc1N(C)CCN(C)C [Example 54]"
  TESTED TARGET: "L858R/T790M EGFR (Homo sapiens, UniProt P00533, L858R/T790M)"
  PARAMETER MEASURED: "IC50"
  VAL: 2.8
- COMPOUND: "C=CC(=O)Nc1cc(Nc2ncc(C)c(-c3c[nH]c4ccccc34)n2)c(OC)cc1N1CCN(C)CC1 [Example 3]"
  TESTED TARGET: "L858R/T790M EGFR (Homo sapiens, UniProt P00533, L858R/T790M)"
  PARAMETER MEASURED: "IC50"
  VAL: 15.5
- COMPOUND: "C=CC(=O)Nc1cc(Nc2ncc(Cl)c(-c3cn(C)c4ccccc34)n2)c(OC)cc1N1CC[C@@H](N(C)C)C1 [Example 21]"
  TESTED TARGET: "L858R/T790M EGFR (Homo sapiens, UniProt P00533, L858R/T790M)"
  PARAMETER MEASURED: "IC50"
  VAL: 2.34

// below: IC50 requested for another compound
The observed IC50 for C=CC(=O)Nc1cc(Nc2nccc(-c3cnn4ccccc34)n2)c(OC)cc1C1=CCN(C)CC1 [Example 51] when tested with L858R/T790M EGFR (Homo sapiens, UniProt P00533, L858R/T790M) stands at 7.71

====

pIC50 values for the compounds below.
# TESTED TARGET: L858R/T790M EGFR (Homo sapiens, UniProt P00533, L858R/T790M)
# Construct: Assays to measure cellular phosphorylation of endogenous p-EGFR in cell lysates; endogenous in cells
# MEASUREMENT PROTOCOL: L858R/T790M EGFR (double mutant) cellular phosphorylation assay
# CONDITION: NCI-H1975 human lung cells; endogenous p-EGFR in cell lysates by ELISA; 2 h with compound
Give only the number. pIC50 is defined as minus log10 of concentration in molar units.

Known pIC50 results, listed for orientation:
- STRUCTURE: "C=CC(=O)Nc1cc(Nc2ncc(Cl)c(-c3cnn4ccccc34)n2)c(OC)cc1N1CC[C@@H]2CN(C)C[C@@H]21"
  TESTED TARGET: "L858R/T790M EGFR (Homo sapiens, UniProt P00533, L858R/T790M)"
  pIC50: 9.17
- STRUCTURE: "C=CC(=O)Nc1cc(Nc2ncc(Cl)c(-c3c[nH]c4ccccc34)n2)c(OC)cc1C1=CCN(C)CC1"
  TESTED TARGET: "L858R/T790M EGFR (Homo sapiens, UniProt P00533, L858R/T790M)"
  pIC50: 8.82
- STRUCTURE: "C=CC(=O)Nc1cc(Nc2nccc(-c3cn(C)c4ccccc34)n2)c(OC)cc1C1=CCN(C)CC1"
  TESTED TARGET: "L858R/T790M EGFR (Homo sapiens, UniProt P00533, L858R/T790M)"
  pIC50: 7.51

Short answer for `C=CC(=O)Nc1cc(Nc2ncc(Cl)c(-c3c[nH]c4ccccc34)n2)c(OC)cc1N1CCN(C)CC1` : pIC50 was 8.25

pIC50 reading for `C=CC(=O)Nc1cc(Nc2ncc(Cl)c(-c3cnn4ccccc34)n2)c(OC)cc1N1CC2(CCCN2C)C1` : 8.26

Quick note, pIC50 for `C=CC(=O)Nc1cc(Nc2nccc(-c3cnn4ccccc34)n2)c(OC)cc1N1CC2(CCCN2C)C1` landed at 7.53

pIC50 reading for `C=CC(=O)Nc1cc(Nc2nccc(-c3c[nH]c4ccccc34)n2)c(OC)cc1N1CCN(C)CC1` : 7.26

The reported pIC50 of the compound `C=CC(=O)Nc1cc(Nc2ncc(Cl)c(-c3cnn4ccccc34)n2)c(OC)cc1N(C)CCN1CCN(C)CC1` was 7.62

====

# TESTED TARGET: L858R/T790M EGFR (Homo sapiens, UniProt P00533, L858R/T790M)
# Construct: Assays to measure cellular phosphorylation of endogenous p-EGFR in cell lysates; endogenous in cells; host or cells: NCI-H1975 (human lung cell line)
# MEASUREMENT PROTOCOL: L858R/T790M EGFR (double mutant) cellular phosphorylation assay
# Assay type: cell-based
# CONDITION: NCI-H1975 human lung cells; endogenous p-EGFR in cell lysates by ELISA; 2 h with compound
Parameter: IC50. Scope: all listed entries.
State just the number; it will be interpreted in nM.

Sample records with IC50:
- STRUCTURE: "C=CC(=O)Nc1cc(Nc2ncc(C)c(-c3cn(C)c4ccccc34)n2)c(OC)cc1N(C)CCN(C)C"
  VAL: 1.46
- STRUCTURE: "C=CC(=O)Nc1cc(Nc2ncc(C#N)c(-c3cnn4ccccc34)n2)c(OC)cc1N1CC(N(C)C)C1"
  VAL: 14.8
- STRUCTURE: "C=CC(=O)Nc1cc(Nc2ncc(Cl)c(-c3c[nH]c4ccccc34)n2)c(OC)cc1N1CC[C@@H](N(C)C)C1"
  VAL: 0.886

Per the record, `C=CC(=O)Nc1cc(Nc2ncc(C)c(-c3cnn4ccccc34)n2)c(OC)cc1C1=CCN(C)CC1` has IC50 of 4.96

The compound listed as `C=CC(=O)Nc1cc(Nc2ncc(C#N)c(-c3cn(C)c4ccccc34)n2)c(OC)cc1N1CC[C@@H](N(C)C)C1` has a reported IC50 of 1.52

// recorded IC50 for `C=CC(=O)Nc1cc(Nc2ncc(C#N)c(-c3cn(C)c4ccccc34)n2)c(OC)cc1N1CCN(C)CC1` : 17.6

Record `C=CC(=O)Nc1cc(Nc2nccc(-c3cnn4c3CCCC4)n2)c(OC)cc1N1CC[C@@H](N(C)C)C1` . Reported IC50: 25.6

====

# TESTED TARGET: Exon19 deletion EGFR (Homo sapiens, UniProt P00533, DEL746-750)
# Construct: Assays to measure cellular phosphorylation of endogenous p-EGFR in cell lysates; endogenous in cells
# Sequence (P00533 with tags, fused parts or gaps DEL746-750): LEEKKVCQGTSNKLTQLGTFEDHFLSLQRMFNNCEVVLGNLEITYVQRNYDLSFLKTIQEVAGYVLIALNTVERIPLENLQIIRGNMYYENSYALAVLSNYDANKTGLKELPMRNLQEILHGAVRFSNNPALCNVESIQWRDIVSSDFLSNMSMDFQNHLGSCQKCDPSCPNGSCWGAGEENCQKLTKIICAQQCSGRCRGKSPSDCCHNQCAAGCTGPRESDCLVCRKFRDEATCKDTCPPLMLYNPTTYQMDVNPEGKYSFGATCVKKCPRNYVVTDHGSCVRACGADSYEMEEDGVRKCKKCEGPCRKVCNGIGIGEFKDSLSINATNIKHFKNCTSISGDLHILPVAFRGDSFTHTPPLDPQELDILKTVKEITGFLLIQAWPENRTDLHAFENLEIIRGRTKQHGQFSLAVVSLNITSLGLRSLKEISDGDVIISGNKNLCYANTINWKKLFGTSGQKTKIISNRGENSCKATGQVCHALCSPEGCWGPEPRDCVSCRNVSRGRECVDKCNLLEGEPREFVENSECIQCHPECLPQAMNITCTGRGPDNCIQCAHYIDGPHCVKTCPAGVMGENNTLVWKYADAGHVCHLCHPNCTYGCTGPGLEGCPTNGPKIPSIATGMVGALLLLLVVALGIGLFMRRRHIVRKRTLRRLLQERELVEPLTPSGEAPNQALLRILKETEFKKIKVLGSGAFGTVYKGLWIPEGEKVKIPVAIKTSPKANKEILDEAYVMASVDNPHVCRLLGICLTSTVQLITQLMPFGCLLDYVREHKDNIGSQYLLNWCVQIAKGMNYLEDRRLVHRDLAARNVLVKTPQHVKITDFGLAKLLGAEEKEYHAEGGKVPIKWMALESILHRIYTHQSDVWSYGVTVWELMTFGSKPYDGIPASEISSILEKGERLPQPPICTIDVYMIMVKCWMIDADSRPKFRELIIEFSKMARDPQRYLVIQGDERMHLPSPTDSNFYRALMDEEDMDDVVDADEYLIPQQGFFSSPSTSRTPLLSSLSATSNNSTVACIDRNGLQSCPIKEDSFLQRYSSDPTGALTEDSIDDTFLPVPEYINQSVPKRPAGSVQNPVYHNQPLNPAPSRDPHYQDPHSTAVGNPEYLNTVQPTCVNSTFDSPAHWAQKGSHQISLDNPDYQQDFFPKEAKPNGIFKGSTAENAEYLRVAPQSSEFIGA
# MEASUREMENT PROTOCOL: Exon19 deletion EGFR (activating single mutant) cellular phosphorylation assay
# CONDITION: PC9 human lung cells (Exon 19 deletion EGFR); endogenous p-EGFR in cell lysates by ELISA; 2 h with compound; read-out: Assay 1 (IC50)
log10 of IC50 reference
// stored as log10 of IC50 expressed in nM

# count of solved cases: 2
- STRUCTURE: "C=CC(=O)Nc1cc(Nc2ncc(Cl)c(-c3cnn4ccccc34)n2)c(OC)cc1N(C)CCN1CCOCC1"
  TESTED TARGET: "Exon19 deletion EGFR (Homo sapiens, UniProt P00533, DEL746-750)"
  PARAMETER MEASURED: "log10 of IC50"
  VAL: 1.57
- STRUCTURE: "C=CC(=O)Nc1cc(Nc2ncc(C#N)c(-c3c[nH]c4ccccc34)n2)c(OC)cc1N1CCN(C)CC1"
  TESTED TARGET: "Exon19 deletion EGFR (Homo sapiens, UniProt P00533, DEL746-750)"
  PARAMETER MEASURED: "log10 of IC50"
  VAL: 0.75

The compound `C=CC(=O)Nc1cc(Nc2nccc(-c3c[nH]c4ccccc34)n2)c(OC)cc1N(C)CCN(C)C` , when measured on Exon19 deletion EGFR (Homo sapiens, UniProt P00533, DEL746-750), yielded log10 of IC50 of 0.36

// log10 of IC50 (Exon19 deletion EGFR (Homo sapiens, UniProt P00533, DEL746-750)) for `C=CC(=O)Nc1cc(Nc2nccc(-c3cnn4ccccc34)n2)c(OC)cc1N1CC2(CCCN2C)C1` = 1.65

====

# TESTED TARGET: Exon19 deletion EGFR (Homo sapiens, UniProt P00533, DEL746-750)
# Construct: Assays to measure cellular phosphorylation of endogenous p-EGFR in cell lysates; endogenous in cells
# MEASUREMENT PROTOCOL: Exon19 deletion EGFR (activating single mutant) cellular phosphorylation assay
# CONDITION: PC9 human lung cells (Exon 19 deletion EGFR); endogenous p-EGFR in cell lysates by ELISA; 2 h with compound; read-out: Assay 1 (IC50)
This section presents compounds with their documented IC50 values.
# value in nM; strip the unit string

In the examples that follow, each entry is paired with its recorded IC50.
- COMPOUND: "C=CC(=O)Nc1cc(Nc2ncc(C#N)c(-c3cn(C)c4ccccc34)n2)c(OC)cc1N(C)CCN(C)C [Example 29]"
  TESTED TARGET: "Exon19 deletion EGFR (Homo sapiens, UniProt P00533, DEL746-750)"
  UNIT SPEC: "nM"
  IC50: 1.23
- COMPOUND: "C=CC(=O)Nc1cc(Nc2ncc(C)c(-c3cn(C)c4ccccc34)n2)c(OC)cc1N1CCN(C)CC1 [Example 18]"
  TESTED TARGET: "Exon19 deletion EGFR (Homo sapiens, UniProt P00533, DEL746-750)"
  UNIT SPEC: "nM"
  IC50: 66.4

Param item: C=CC(=O)Nc1cc(Nc2nccc(-c3c[nH]c4ccccc34)n2)c(OC)cc1N1CC(N(C)C)C1 [Example 58] ; param system: Exon19 deletion EGFR (Homo sapiens, UniProt P00533, DEL746-750); output IC50: 7.08

Summary line: C=CC(=O)Nc1cc(Nc2ncc(Cl)c(-c3c[nH]c4ccccc34)n2)c(OC)cc1N1CC(N(C)C)C1 [Example 37] , Exon19 deletion EGFR (Homo sapiens, UniProt P00533, DEL746-750), reported IC50 = 2.11

Hey, just so you know, these numbers are from patent US11524951B2.
